Biological target: His6-ERα298-554 Y537S mutant (ERα ligand-binding domain) (Homo sapiens (Human), UniProt P03372, Y537S)
Sequence (P03372 298-554 Y537S): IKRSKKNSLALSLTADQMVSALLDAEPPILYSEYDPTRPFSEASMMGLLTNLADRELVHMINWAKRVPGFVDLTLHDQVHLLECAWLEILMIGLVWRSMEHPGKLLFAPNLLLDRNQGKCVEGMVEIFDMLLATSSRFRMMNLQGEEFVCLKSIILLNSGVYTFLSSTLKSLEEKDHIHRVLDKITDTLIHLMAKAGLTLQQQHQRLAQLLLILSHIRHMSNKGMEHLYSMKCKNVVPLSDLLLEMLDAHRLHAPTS
Assay: Test A: biochemical antagonist activity, LanthaScreen TR-FRET ERα coactivator assay, Y537S mutant
Details: asterisk (*): protocol using 10 nM estradiol; read-out: Antagonism Y537S IC50
Quantity Measured: pIC50
Note on pIC50: it is the negative log10 of concentration, concentration in mol/L.

The compound listed as CC1(C)Cc2cc(C3=C(c4ccc(O[C@H]5CCN(CCCF)C5)cc4)c4ccc(O)cc4SC3)ccc2N1 [Example 29] has a reported pIC50 of 6.89

The compound listed as COc1ccc(C2=C(c3ccc(O[C@H]4CCN(CCCF)C4)cc3)c3ccc(O)cc3OCC2)c(C)c1 [Example 157] has a reported pIC50 of 7.44

The compound listed as Cc1ccc(C2=C(c3ccc(O[C@H]4CCN(CCCF)C4)cc3)c3ccc(O)cc3SCC2)c(F)n1 [Example 192] has a reported pIC50 of 6.96

The compound listed as Cc1noc(C)c1C1=C(c2ccc(O[C@H]3CCN(CCCF)C3)cc2)c2ccc(O)cc2SCC1 [Example 219] has a reported pIC50 of 6.83

The compound listed as CCOc1ccc(C2=C(c3cnc(O[C@H]4CCN(CCCF)C4)nc3)c3ccc(O)cc3CCC2)c(F)n1 [Example 251] has a reported pIC50 of 7.24

The compound listed as CC1(C)Cc2cc(C3=C(c4ccc(O[C@H]5CCN(CCCF)C5)nc4)c4ccc(O)cc4CCC3)ccc2N1 [Example 242] has a reported pIC50 of 8.15

The compound listed as CCOc1ccc(C2=C(c3ccc(O[C@H]4CCN(CCCF)C4)cc3)c3ccc(O)cc3SC2)c(Cl)c1 [Example 36] has a reported pIC50 of 6.81

---

Target: His6-ERα298-554 D538G mutant (ERα ligand-binding domain) (Homo sapiens (Human), UniProt P03372, D538G)
Sequence (P03372 298-554 D538G): as the sequence (P03372 298-554 Y537S) above, with S240Y, D241G counted along it
Assay: Test A: biochemical antagonist activity, LanthaScreen TR-FRET ERα coactivator assay, D538G mutant
Conditions: protocol with 3 nM estradiol; read-out: Antagonism D538G IC50
Mark each entry rule met if its IC50 sits below 0.1 µM, and rule not met for all others.

Answer whether the compound Cc1cc(C2=C(c3ccc(O[C@H]4CCN(CCCF)C4)cc3)c3cc(O)ccc3SCC2)ccc1Cl has IC50 strictly less than 0.1 µM
rule not met

Answer whether the compound Oc1ccc2c(c1Cl)OCCC(c1ccc3cc[nH]c3c1)=C2c1ccc(O[C@H]2CCN(CCCF)C2)cc1 has IC50 strictly less than 0.1 µM
rule not met

Answer whether the compound Oc1ccc2c(c1)SCCC(c1ccc(Cl)cc1F)=C2c1ccc(O[C@H]2CCN(CCCF)C2)cc1 has IC50 strictly less than 0.1 µM
rule met

Answer whether the compound Cc1c(Cl)cccc1C1=C(c2ccc(O[C@H]3CCN(CCCF)C3)cc2)c2cc(O)ccc2SCC1 has IC50 strictly less than 0.1 µM
rule not met

Answer whether the compound Oc1ccc2c(c1)SCCC(c1cnc3c(c1)CCN3)=C2c1ccc(O[C@H]2CCN(CCCF)C2)cc1 has IC50 strictly less than 0.1 µM
rule not met

Answer whether the compound Oc1ccc2c(c1)SCCC(c1ccc3c(c1)CCN3)=C2c1ccc(O[C@H]2CCN(CCCF)C2)cc1 has IC50 strictly less than 0.1 µM
rule met

Answer whether the compound Oc1ccc2c(c1F)OCCC(c1ccc3[nH]ccc3c1)=C2c1ccc(O[C@H]2CCN(CCCF)C2)cc1 has IC50 strictly less than 0.1 µM
rule met

Answer whether the compound Oc1ccc(C2=C(c3ccc(O[C@H]4CCN(CCCF)C4)cc3)c3ccc(O)cc3OC2)cc1 has IC50 strictly less than 0.1 µM
rule not met

Answer whether the compound Oc1ccc2c(c1)SCC(c1ccc3c(c1)CCN3)=C2c1ccc(O[C@H]2CCN(CCCF)C2)cc1 has IC50 strictly less than 0.1 µM
rule met

Answer whether the compound Cc1cc2c(cc1O)OCCC(c1ccc3[nH]ccc3c1)=C2c1ccc(O[C@H]2CCN(CCCF)C2)cc1 has IC50 strictly less than 0.1 µM
rule not met

---

Biological target: His6-ERα298-554 Y537S mutant (ERα ligand-binding domain) (Homo sapiens (Human), UniProt P03372, Y537S)
Assay: Test A: biochemical antagonist activity, LanthaScreen TR-FRET ERα coactivator assay, Y537S mutant
Conditions: asterisk (*): protocol using 10 nM estradiol; read-out: Antagonism Y537S IC50
Quantity Measured: IC50
Please answer using a numeric value trailed by its unit.

The compound listed as Oc1ccc2c(c1)SCC(c1ccc(OCF)cc1)=C2c1ccc(O[C@H]2CCN(CCCF)C2)cc1 has a reported IC50 of 103 nM

The compound listed as CCOc1ccc(C2=C(c3ccc(O[C@H]4CCN(CCCF)C4)cc3)c3ccc(O)cc3OCC2)c(F)c1 has a reported IC50 of 107 nM

The compound listed as O=C(O)c1ccc2c(c1)CCCC(c1ccc(Cl)cc1Cl)=C2c1ccc(O[C@H]2CCN(CCCF)C2)nc1 has a reported IC50 of 72 nM

---

Could you please report measured IC50 for the items listed next?
Biological target: His6-ERα298-554 D538G mutant (ERα ligand-binding domain) (Homo sapiens (Human), UniProt P03372, D538G)
Experiment: Test A: biochemical antagonist activity, LanthaScreen TR-FRET ERα coactivator assay, D538G mutant
Details: asterisk (*): protocol using 10 nM estradiol; read-out: Antagonism D538G IC50

The compound listed as O=C(O)c1ccc2c(c1)CCCC(c1ccc(OC(F)F)c(F)c1)=C2c1ccc(O[C@H]2CCN(CCCF)C2)nc1 has a reported IC50 of 3.44 µM

The compound listed as CCN(CC)c1ccc(C2=C(c3ccc(O[C@H]4CCN(CCCF)C4)cc3)c3ccc(O)cc3SC2)c(F)c1 has a reported IC50 of > 4 µM

The compound listed as C[C@@H]1Cc2cc(C3=C(c4ccc(O[C@H]5CCN(CCCF)C5)cc4)c4ccc(O)cc4SCC3)ccc2O1 has a reported IC50 of 0.015 µM

---

Target: ERα in MCF7 cells (Homo sapiens (Human))
Sequence (P03372 whole entry): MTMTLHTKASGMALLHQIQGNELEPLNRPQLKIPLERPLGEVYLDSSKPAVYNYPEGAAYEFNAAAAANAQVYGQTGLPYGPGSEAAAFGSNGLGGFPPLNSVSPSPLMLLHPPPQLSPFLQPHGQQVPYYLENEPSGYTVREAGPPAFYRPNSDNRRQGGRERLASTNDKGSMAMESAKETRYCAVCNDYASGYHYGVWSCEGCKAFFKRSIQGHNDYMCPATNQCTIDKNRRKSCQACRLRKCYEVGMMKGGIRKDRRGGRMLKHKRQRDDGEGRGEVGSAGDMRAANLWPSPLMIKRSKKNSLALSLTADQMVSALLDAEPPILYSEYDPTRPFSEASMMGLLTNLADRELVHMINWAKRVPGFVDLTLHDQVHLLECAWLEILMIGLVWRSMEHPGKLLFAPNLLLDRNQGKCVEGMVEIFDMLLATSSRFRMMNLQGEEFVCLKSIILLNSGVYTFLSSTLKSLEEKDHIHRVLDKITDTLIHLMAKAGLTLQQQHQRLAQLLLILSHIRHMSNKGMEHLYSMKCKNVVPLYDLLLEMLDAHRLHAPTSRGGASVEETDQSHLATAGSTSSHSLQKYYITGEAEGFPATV
Experiment: Test C: estrogen receptor degradation activity, ERα in cell western assay in MCF7 cells
Format: cell-based
Settings: at 3 μM, 4 hours, relative to fulvestrant
Quantity Measured: % Degradation at 3 μM
Please answer using a numeric value trailed by its unit.

Log: ERα in MCF7 cells (Homo sapiens (Human)), compound Cc1ccc(C2=C(c3ccc(O[C@H]4CCN(CCCF)C4)cc3)c3ccc(O)cc3OCC2)c(F)c1 , % Degradation at 3 μM = 91%

Log: ERα in MCF7 cells (Homo sapiens (Human)), compound CCOc1ccc(C2=C(c3ccc(O[C@H]4CCN(CCCF)C4)cc3)c3ccc(O)cc3SC2)c(Cl)c1 , % Degradation at 3 μM = 83%

Log: ERα in MCF7 cells (Homo sapiens (Human)), compound Oc1ccc2c(c1)SCC(c1ccc(O)nc1F)=C2c1ccc(O[C@H]2CCN(CCCF)C2)cc1 , % Degradation at 3 μM = 83%

Log: ERα in MCF7 cells (Homo sapiens (Human)), compound Oc1ccc2c(c1)SCCC(c1cccc3[nH]ccc13)=C2c1ccc(O[C@H]2CCN(CCCF)C2)cc1 , % Degradation at 3 μM = 87%

Log: ERα in MCF7 cells (Homo sapiens (Human)), compound Oc1ccc2c(c1)CCCC(c1ccc(OC(F)F)c(F)c1)=C2c1ccc(O[C@H]2CCN(CCCF)C2)nc1 , % Degradation at 3 μM = 85%

---

Target: ERα in MCF7 cells (Homo sapiens (Human))
Experiment: Test C: estrogen receptor degradation activity, ERα in cell western assay in MCF7 cells
Type: cell-based
Details: at 3 μM, 4 hours, relative to fulvestrant
Quantity Measured: % Degradation at 3 μM (%)
Please reply with the bare figure in % and do not write the unit itself.

The compound listed as CCNc1ccc(C2=C(c3ccc(O[C@H]4CCN(CCCF)C4)cc3)c3ccc(O)cc3SCC2)c(F)c1 has a reported % Degradation at 3 μM of 91

The compound listed as Oc1ccc2c(c1)SCC(c1ccc(Cl)cc1F)=C2c1ccc(O[C@H]2CCN(CCCF)C2)cc1 has a reported % Degradation at 3 μM of 90

The compound listed as Cc1ccc(C2=C(c3ccc(O[C@H]4CCN(CCCF)C4)cc3)c3ccc(O)cc3[S+]([O-])C2)c(F)c1 (stereo partly drawn) [Example 57] has a reported % Degradation at 3 μM of 89

---

Biological target: His6-ERα298-554 WT (ERα ligand-binding domain) (Homo sapiens (Human), UniProt P03372)
Sequence (P03372 298-554): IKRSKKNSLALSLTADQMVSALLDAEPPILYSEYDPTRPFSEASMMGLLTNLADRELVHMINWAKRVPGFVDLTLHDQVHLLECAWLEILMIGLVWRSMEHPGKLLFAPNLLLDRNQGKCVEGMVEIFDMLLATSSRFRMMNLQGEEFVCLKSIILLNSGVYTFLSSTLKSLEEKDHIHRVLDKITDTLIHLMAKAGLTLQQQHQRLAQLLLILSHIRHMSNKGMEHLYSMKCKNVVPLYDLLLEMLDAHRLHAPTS
Test: Test A: biochemical antagonist activity, LanthaScreen TR-FRET ERα coactivator assay, WT
Conditions: asterisk (*): protocol using 10 nM estradiol; read-out: Antagonism WT IC50
Could you please report measured log10 of IC50 for the items listed next?
Remember, log10 of IC50, in nM.

Log: His6-ERα298-554 WT (ERα ligand-binding domain) (Homo sapiens (Human), UniProt P03372), compound CCOc1ccc(C2=C(c3cnc(O[C@H]4CCN(CCCF)C4)nc3)c3ccc(O)cc3CCC2)c(F)n1 , log10 of IC50 = 0.60

Log: His6-ERα298-554 WT (ERα ligand-binding domain) (Homo sapiens (Human), UniProt P03372), compound Oc1ccc2c(c1)CCCC(c1ccc(Cl)c(F)c1)=C2c1cnc(O[C@H]2CCN(CCCF)C2)cn1 , log10 of IC50 = 1.08

Log: His6-ERα298-554 WT (ERα ligand-binding domain) (Homo sapiens (Human), UniProt P03372), compound CC1Cc2c([nH]c3ccccc23)C(c2c(F)cc(O[C@H]3CCN(CCCF)C3)cc2F)N1CC(C)(C)F (single isomer, unassigned) [Example 256] , log10 of IC50 = 0.78

Log: His6-ERα298-554 WT (ERα ligand-binding domain) (Homo sapiens (Human), UniProt P03372), compound Oc1ccc2c(c1)C(c1ccc(O[C@H]3CCN(CCCF)C3)cc1)=C(c1ccc(SC(F)(F)F)cc1)CC2 , log10 of IC50 = 3.36

Log: His6-ERα298-554 WT (ERα ligand-binding domain) (Homo sapiens (Human), UniProt P03372), compound Cc1ccc(C2=C(c3ccc(O[C@H]4CCN(CCCF)C4)cc3)c3ccc(O)cc3SCC2)c(F)n1 , log10 of IC50 = 0.95

Log: His6-ERα298-554 WT (ERα ligand-binding domain) (Homo sapiens (Human), UniProt P03372), compound Cc1ccc(C2=C(c3ccc(O[C@H]4CCN(CCCF)C4)cc3)c3ccc(O)cc3SC2)c(Cl)n1 , log10 of IC50 = 1.57

Log: His6-ERα298-554 WT (ERα ligand-binding domain) (Homo sapiens (Human), UniProt P03372), compound CCOc1ccc(C2=C(c3ccc(O[C@H]4CCN(CCCF)C4)cc3)c3ccc(O)cc3SCC2)c(F)c1F , log10 of IC50 = 0.60

Log: His6-ERα298-554 WT (ERα ligand-binding domain) (Homo sapiens (Human), UniProt P03372), compound Oc1ccc2c(c1)SCCC(c1ccc(OC(F)F)c(F)c1)=C2c1ccc(O[C@H]2CCN(CCCF)C2)nc1 , log10 of IC50 = 0.30

Log: His6-ERα298-554 WT (ERα ligand-binding domain) (Homo sapiens (Human), UniProt P03372), compound CCOc1nccc(C2=C(c3ccc(O[C@H]4CCN(CCCF)C4)cc3)c3ccc(O)cc3SC2)c1Cl , log10 of IC50 = 0.30

Log: His6-ERα298-554 WT (ERα ligand-binding domain) (Homo sapiens (Human), UniProt P03372), compound [2H]C([2H])([2H])Oc1ccc(C2=C(c3ccc(O[C@H]4CCN(CCCF)C4)cc3)c3ccc(O)cc3SC2)c(F)c1 , log10 of IC50 = 0.60

Log: His6-ERα298-554 WT (ERα ligand-binding domain) (Homo sapiens (Human), UniProt P03372), compound Oc1ccc2c(c1)SCC(c1ccc(OC(F)(F)F)cc1)=C2c1ccc(O[C@H]2CCN(CCCF)C2)nc1 , log10 of IC50 = 1.08

Log: His6-ERα298-554 WT (ERα ligand-binding domain) (Homo sapiens (Human), UniProt P03372), compound CC1(C)Cc2cc(C3=C(c4ccc(O[C@H]5CCN(CCCF)C5)cc4)c4ccc(O)cc4SC3)ccc2N1 , log10 of IC50 = 1.15

Log: His6-ERα298-554 WT (ERα ligand-binding domain) (Homo sapiens (Human), UniProt P03372), compound CCOc1ccc(C2=C(c3cnc(O[C@H]4CCN(CCCF)C4)nc3)c3ccc(O)cc3CCC2)c(F)c1F , log10 of IC50 = 0.30

Log: His6-ERα298-554 WT (ERα ligand-binding domain) (Homo sapiens (Human), UniProt P03372), compound Cc1ccc(C2=C(c3cnc(O[C@H]4CCN(CCCF)C4)nc3)c3ccc(O)cc3CCC2)c(F)c1 , log10 of IC50 = 0.48

Log: His6-ERα298-554 WT (ERα ligand-binding domain) (Homo sapiens (Human), UniProt P03372), compound Oc1ccc2c(c1)OCC(c1ccc(F)cc1Cl)=C2c1ccc(O[C@H]2CCN(CCCF)C2)cc1 , log10 of IC50 = 2.47

Log: His6-ERα298-554 WT (ERα ligand-binding domain) (Homo sapiens (Human), UniProt P03372), compound NS(=O)(=O)c1ccc(C2=C(c3ccc(O[C@H]4CCN(CCCF)C4)cc3)c3ccc(O)cc3SC2)cc1 , log10 of IC50 = 2.83
